Provide the recorded TGI for the entries that follow.
# Tested on: MOLT-4 leukemia
# ASSAY_EXPLANATION: NCI tumour cell line growth inhibition, 48 h

Note to self: TGI recorded for CC(=O)O[C@H]1CCC(C)=CCC[C@@]2(C)C(CC[C@@H]2[C@@H](C)/C=C/C(C)C)c2ccc(cc2C(=O)O)C1 (stereo partly drawn) was 4.79 µM

Note to self: TGI recorded for CC(=O)OC(OC(C)=O)n1cc(C=O)c2ccccc21 was > 100 µM

Note to self: TGI recorded for O=c1[nH]nc(-c2ccccc2)n1/N=C/c1c(O)ccc2ccccc12 was > 100 µM

====

# System: OVCAR-4 ovarian
# ASSAY_EXPLANATION: NCI tumour cell line growth inhibition, 48 h; in the data active means GI50 below about 0.43 µM; inactive means the rest
The reply should name one outcome from 1 = active, -1 = inactive

Prompt line: Outcome logged for c1ccc(-n2nnnc2-c2cccc3ccccc23)cc1 in this assay:
Response line: -1

Prompt line: Outcome logged for N#CCc1ncc(-c2ccc(C(F)(F)F)cc2)c(NC2CCCCCC2)n1 in this assay:
Response line: -1

Prompt line: Outcome logged for Cn1cc(-c2cnc3ccc4ccc(CS(=O)(=O)NCc5ccccn5)cc4c(=O)c3c2)cn1 in this assay:
Response line: -1

Prompt line: Outcome logged for C=CCC1(O)c2cccc(NCCO)c2C(=O)c2c(NCCO)cccc21 in this assay:
Response line: -1

Prompt line: Outcome logged for COc1cccc2c1C(=O)c1c(O)c3c(c(O)c1C2=O)C[C@@](O)(C(=O)CO)C[C@@H]3OC1C[C@H](N)[C@H](O)[C@H](C)O1 (stereo partly specified) in this assay:
Response line: 1

Prompt line: Outcome logged for Cc1cc(C)c(O)c(CN(C)Cc2cc(Cl)cc(Cl)c2O)c1 in this assay:
Response line: -1

Prompt line: Outcome logged for COc1ccc2c(c1)C(=O)/C(=C/c1ncc([N+](=O)[O-])n1C)O2 in this assay:
Response line: -1

Prompt line: Outcome logged for CCOC(=O)/C=C/C(C(=O)/C=C/c1ccc(O)c(OC)c1)=C(O)\C=C\c1ccc(O)c(OC)c1 in this assay:
Response line: -1

Prompt line: Outcome logged for O=C(CCl)N1c2ccccc2Sc2ccc3ccccc3c21 in this assay:
Response line: -1

Prompt line: Outcome logged for O=C(Cc1cccc(OC(F)(F)F)c1)Nc1ccc(CCCCc2nnc(NC(=O)Cc3ccccn3)s2)nn1 in this assay:
Response line: -1

Prompt line: Outcome logged for C=C1C(=O)O[C@H]2[C@H]1CC/C(COC(=O)CSCC(=O)OC/C1=C/CC[C@@]3(C)O[C@H]3[C@H]3OC(=O)C(=C)[C@@H]3CC1)=C\CC[C@@]1(C)O[C@@H]21 in this assay:
Response line: -1

Prompt line: Outcome logged for COc1ccc(C(=O)c2cc3c(OC)c(OC)c(OC)cc3[nH]2)cc1 in this assay:
Response line: -1

Prompt line: Outcome logged for Cc1cc(Cc2cc(C)cc(C(C)(C)C)c2O)c(O)c(C(C)(C)C)c1 in this assay:
Response line: -1

Prompt line: Outcome logged for Cc1c(C)[n+](=O)c(C)c(C)n1[O-] in this assay:
Response line: -1

Prompt line: Outcome logged for CCN1c2ccccc2C(Cl)(c2ccc(N(C)C)cc2)c2ccccc21 in this assay:
Response line: -1

Prompt line: Outcome logged for COc1ccc2nc3cc(Cl)ccc3c(NCCCNCCC(C)O)c2c1 (stereo unspecified) in this assay:
Response line: 1
